test system: UniProt P0C0W8
Sequence (P0C0W8 whole entry): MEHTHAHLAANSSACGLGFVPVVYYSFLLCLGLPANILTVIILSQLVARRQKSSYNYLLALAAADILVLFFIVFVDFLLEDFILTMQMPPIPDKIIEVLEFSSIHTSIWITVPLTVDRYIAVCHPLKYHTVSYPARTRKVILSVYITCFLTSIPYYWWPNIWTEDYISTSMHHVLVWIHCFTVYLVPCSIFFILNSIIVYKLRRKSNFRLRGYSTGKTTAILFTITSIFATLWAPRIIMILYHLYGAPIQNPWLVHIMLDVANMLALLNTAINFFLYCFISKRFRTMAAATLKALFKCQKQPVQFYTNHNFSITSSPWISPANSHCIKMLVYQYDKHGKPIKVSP
method summary: Agonist activity at rat GPR139 expressed in CHO-K1 cells assessed as increase in calcium flux by calcium 5 dye based FLIPR assay
Format: cell-based
measured metric: EC50

compound: O=C(Cn1nc2ccc(F)cn2c1=O)NC1(c2ccc(Cl)cc2)CC1
test system: UniProt P0C0W8
EC50: ≥ 100 nM

input: So what's the measured EC50 for this one? "C[C@H](NC(=O)Cn1nc2ncccn2c1=O)c1ccc(OC(F)(F)F)cc1"
output: ≥ 100 nM

input: Please report the recorded EC50 for "COc1cnc2nn(CC(=O)N[C@@H](C)c3ccc(OC(F)(F)F)cc3)c(=O)n2c1" .
output: ≥ 100 nM

input: Quick check: EC50 of "Cc1cnc2nn(CC(=O)N[C@@H](C)c3ccc(OC(F)(F)F)cc3)c(=O)n2c1" ?
output: ≥ 100 nM

input: // EC50 lookup, key: CC(NC(=O)Cn1nc2ccccn2c1=O)c1ncc(Cl)cc1F (stereo unspecified)
output: ≥ 100 nM

input: Quick one: EC50 for "Cc1ccc([C@H](C)NC(=O)Cn2nc3ccc(F)cn3c2=O)cc1" ?
output: < 1 nM

input: Returns the measured EC50 for the input compound. Input: "Cc1ccc([C@H](C)NC(=O)Cn2nc3ncccn3c2=O)cc1"
output: ≥ 100 nM

input: Consider the compound shown here: "C[C@H](NC(=O)Cn1nc2c(C3CC3)ccnn2c1=O)c1ccc(Cl)c(F)c1" What is its recorded EC50?
output: < 1 nM

input: What value of measured EC50 is listed for "CC(C)Oc1ccc([C@H](C)NC(=O)Cn2nc3ccccn3c2=O)cc1" ?
output: ≥ 100 nM

input: Recorded EC50 of "O=C(Cn1nc2cccnn2c1=O)NC1(c2ccc(Cl)cc2)CC1" , please.
output: ≥ 100 nM

input: What does the data say about its EC50? Entry: "Cc1ccc2nn(CC(=O)N[C@@H](C)c3ccc(Cl)c(F)c3)c(=O)n2n1"
output: < 1 nM

input: Quick one: EC50 for "CNc1nccn2c(=O)n(CC(=O)N[C@@H](C)c3ccc(Cl)c(F)c3)nc12" ?
output: < 1 nM

input: # query: EC50 of entry Cc1ccc([C@H](C)NC(=O)Cn2nc3c(C4CCN(C)C4)cccn3c2=O)cc1 (stereo partly specified)
output: ≥ 100 nM

input: Which EC50 value belongs to "Cc1cnn2c(=O)n(CC(=O)N[C@@H](C)c3ccc(OC(F)(F)F)cc3)nc2c1" ?
output: ≥ 100 nM

input: Fill in: EC50 of "C[C@H](NC(=O)Cn1nc2cccc(N3CCN(C)CC3)n2c1=O)c1ccc(Cl)c(F)c1" is ___
output: ≥ 100 nM

input: Could you share which EC50 value was measured for "C[C@H](NC(=O)Cn1nc2cc(-c3ccccc3)ccn2c1=O)c1ccc(Cl)c(F)c1" ?
output: < 1 nM

input: GET /values?readout=EC50&item= "C[C@H](NC(=O)Cn1nc2ccccn2c1=O)c1ccc(F)cc1"
output: ≥ 100 nM

input: # input compound: "Cc1nccn2c(=O)n(CC(=O)N[C@@H](C)c3ccc(Cl)c(F)c3)nc12" ; wanted: its EC50
output: < 1 nM

input: Reported EC50 for "Cc1ccc([C@H](C)NC(=O)Cn2nc3cc(C)ccn3c2=O)cc1" : what is it?
output: < 1 nM

input: So what's the measured EC50 for this one? "COc1ccc2nn(CC(=O)N[C@@H](C)c3ccc(Cl)cc3)c(=O)n2n1"
output: ≥ 100 nM

input: Quick one: EC50 of "COc1ccn2c(=O)n(CC(=O)N[C@@H](C)c3ccc(C)cc3)nc2c1" ?
output: < 1 nM
